Exercise: for every item that follows, state its recorded half-life at 1 µM.
test: Metabolic stability in human liver microsomes; type: in vitro ADME; conditions: human liver microsomes, 1 µM compound, 1 mg protein/mL, 37 °C, read-out: HLM t1/2
Where a SMILES comes first, the peptide text is derived from it. [ ]: non-standard residue; d: D form. dPhe(4-NO2) = N[C@H](Cc1ccc([N+](=O)[O-])cc1)C(=O)O; dPhe(3,4,5-F3) = N[C@H](Cc1cc(F)c(F)c(F)c1)C(=O)O; dPhe(3,4-F2) = N[C@H](Cc1ccc(F)c(F)c1)C(=O)O; dPhe(3,5-F2) = N[C@H](Cc1cc(F)cc(F)c1)C(=O)O; dPhe(2-F) = N[C@H](Cc1ccccc1F)C(=O)O
One number for each entry, in min.

Completed entries (count: 4):
{"columns": ["Compound", "half-life at 1 µM (min)"],
 "data": [
  ["O=C1N[C@H](Cc2cc(F)c(F)c(F)c2)C(=O)N[C@@H](Cc2ccccc2)C(=O)N2CCC[C@@H]2C(=O)N[C@H]1Cc1ccccc1 [Analog 11] (cyclo(F[dP]F[dPhe(3,4,5-F3)]))", 1.6],
  ["O=C1N[C@H](Cc2ccc(F)c(F)c2)C(=O)N[C@@H](Cc2ccccc2)C(=O)N2CCC[C@@H]2C(=O)N[C@H]1Cc1ccccc1 [Analog 8] (cyclo(F[dP]F[dPhe(3,4-F2)]))", 2.2],
  ["O=C1N[C@H](Cc2cc(F)cc(F)c2)C(=O)N[C@@H](Cc2ccccc2)C(=O)N2CCC[C@@H]2C(=O)N[C@H]1Cc1ccccc1 [Analog 9, [D-Phe(3,5-F2)^4]CJ-15,208] (cyclo(F[dP]F[dPhe(3,5-F2)]))", 2.9],
  ["O=C1N[C@H](Cc2ccc([N+](=O)[O-])cc2)C(=O)N[C@@H](Cc2ccccc2)C(=O)N2CCC[C@@H]2C(=O)N[C@H]1Cc1ccccc1 [Analog 16] (cyclo(F[dP]F[dPhe(4-NO2)]))", 6.7]
]}

Request: Fill in the blank: the reported half-life at 1 µM of O=C1N[C@H](Cc2ccccc2F)C(=O)N[C@@H](Cc2ccccc2)C(=O)N2CCC[C@@H]2C(=O)N[C@H]1Cc1ccccc1 [Analog 5] (cyclo(F[dP]F[dPhe(2-F)])) is ____.
Result: 1.9

Values compiled from paper PMC12526156.
